B1: TRIM29 (parent)
chain: RKCPVHGKTMELFCQTDQTCICYL

variants of: B1; assay: protein stability index of a GFP-peptide fusion (GPS, HEK-293T) (PSI 1-6); higher = more stable; settings: c terminus: a fixed tail appended;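 further: lentivirally expressed fusions sorted by FACS into six bins by GFP to DsRed ratio, PSI derived from sequencing read proportions per bin multiplied by bin number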
met means recorded protein stability index is 2 or above; not met means it is below 2.

The examples below pair each entry with its known result.
>  <biosequence>
RKCPVHGKTMELNCQTDQTCICYL [F13N]

>  <label class>
met

$$$$
>  <biosequence>
RKCLVHGKTMELFCQTDQTCICYL [P4L]

>  <label class>
met

$$$$
>  <biosequence>
RKCPVHGKTFELFCQTDQTCICYL [M10F]

>  <label class>
met

$$$$
>  <biosequence>
RKCPVHGKTAELFCQTDQTCICYL [M10A]

>  <label class>
not met

$$$$
>  <biosequence>
RKCPVHGKTMELFCQLDQTCICYL [T16L]

>  <label class>
not met

$$$$

Problem: # bool: protein stability index of RACPVHGKTMELFCQTDQTCICYL [K2A] >= 2
Result: met

Problem: # bool: protein stability index of RECPVHGKTMELFCQTDQTCICYL [K2E] >= 2
Result: not met

Problem: # bool: protein stability index of RKCPVHGDTMELFCQTDQTCICYL [K8D] >= 2
Result: not met

Problem: # bool: protein stability index of RKCPVHGKFMELFCQTDQTCICYL [T9F] >= 2
Result: met

Problem: # bool: protein stability index of RKCPVHGYTMELFCQTDQTCICYL [K8Y] >= 2
Result: not met

Problem: # bool: protein stability index of RKCPVHGKTMELFCQHDQTCICYL [T16H] >= 2
Result: met

Problem: # bool: protein stability index of RKCPVHGKTMFLFCQTDQTCICYL [E11F] >= 2
Result: not met

Problem: # bool: protein stability index of RKCPVHGKTMELYCQTDQTCICYL [F13Y] >= 2
Result: met

Problem: # bool: protein stability index of RKCPVHGKTMELFCQTDQTCICYT [L24T] >= 2
Result: met
